Biological target: MAP kinase-activated protein kinase 5 (Homo sapiens)
Conditions: at 0.1 µM
quantity: inhibition (%)
State the answer as a number, implicitly in %.

Prompt: Would you please give the reported inhibition of Cc1ccc(C(=O)NC2CCCCC2)cc1-c1ccc(C(=O)NCC2CC2)cc1 with MAP kinase-activated protein kinase 5 (Homo sapiens)?
Response: 0.69

Prompt: State the measured inhibition (MAP kinase-activated protein kinase 5 (Homo sapiens)) of CS(=O)(=O)CCNCc1ccc(-c2ccc3ncnc(Nc4ccc(OCc5cccc(F)c5)c(C(F)(F)F)c4)c3c2)o1
Response: 1.63

Prompt: // fetch inhibition for Nc1nc(-c2ccc3c(c2)C(=Cc2cc(Br)c(O)c(Br)c2)C(=O)N3)cs1 ; system: MAP kinase-activated protein kinase 5 (Homo sapiens)
Response: -1.39

Prompt: Specify inhibition for CC(=O)Nc1cccc(C#Cc2cncnc2Nc2ccc(OCc3cccc(F)c3)c(Cl)c2)n1 , system MAP kinase-activated protein kinase 5 (Homo sapiens).
Response: 0.35

Prompt: Enter measured inhibition, system MAP kinase-activated protein kinase 5 (Homo sapiens), for the compound shown: CCCN1CCC=C(c2ccc(Nc3nc(Nc4ccccc4C(N)=O)c4cc[nH]c4n3)c(C)c2)C1
Response: 1.79

Prompt: Quote MAP kinase-activated protein kinase 5 (Homo sapiens) inhibition for entry CCn1c(-c2nonc2N)nc2c(N3CCCC3)nccc21 .
Response: -0.99

Prompt: Print MAP kinase-activated protein kinase 5 (Homo sapiens) inhibition for c1cnn2ncc(-c3ccnc(Nc4ccc5c(c4)OCCO5)n3)c2c1 .
Response: 1.78

Prompt: Provide MAP kinase-activated protein kinase 5 (Homo sapiens) inhibition reading for CC1=C(C(=O)Nc2ccc3[nH]ncc3c2)C(c2ccc3ccccc3c2)CC(=O)N1 (stereo unspecified) .
Response: 0.65

Prompt: Answer briefly: inhibition recorded on MAP kinase-activated protein kinase 5 (Homo sapiens) for CCn1c(-c2nonc2N)nc2c(C#CC(C)(C)O)nc(CN3CCCC3)cc21
Response: -0.65

Prompt: Tell me inhibition of O=C1NC(=O)C(c2cccc(Cl)c2)=C1Nc1ccc(O)c(Cl)c1 when tested on MAP kinase-activated protein kinase 5 (Homo sapiens).
Response: -0.23

Prompt: Answer briefly: inhibition recorded on MAP kinase-activated protein kinase 5 (Homo sapiens) for CS(=O)(=O)Nc1ccc(N/C=C2\C(=O)Nc3ccccc32)cc1
Response: -0.78

Prompt: Please indicate recorded inhibition of CCn1c(-c2nonc2N)nc2cncc(C(=O)N3CCNCC3)c21 measured with MAP kinase-activated protein kinase 5 (Homo sapiens).
Response: 2.77

Prompt: Look up and report measured inhibition (MAP kinase-activated protein kinase 5 (Homo sapiens)) for the following compound: CCn1c(-c2nonc2N)nc2cncc(C(=O)N3CC[C@H](N)C3)c21
Response: 1.81

Prompt: Give inhibition; test system MAP kinase-activated protein kinase 5 (Homo sapiens); compound CCCN1CCC(Oc2cc(Nc3nc(Nc4cccc(F)c4C(N)=O)c4cc[nH]c4n3)c(OC)cc2Cl)CC1
Response: -0.3

Prompt: Provide MAP kinase-activated protein kinase 5 (Homo sapiens) inhibition reading for CS(=O)(=O)CCNCc1ccc(-c2ccc3ncnc(Nc4ccc(OCc5ccccc5)c(Cl)c4)c3c2)o1 .
Response: 0.46

Prompt: State recorded inhibition with MAP kinase-activated protein kinase 5 (Homo sapiens), entry COc1cc2ncn(-c3cc(OCc4ccccc4C(F)(F)F)c(C(N)=O)s3)c2cc1OC , no comment.
Response: 1.22

Prompt: Tell me inhibition of Cc1ccc(NC(=O)c2ccnc(N3CCCC3)c2)cc1-c1ccc(C(=O)NCC2CC2)cc1 when tested on MAP kinase-activated protein kinase 5 (Homo sapiens).
Response: 1.02

Prompt: State the measured inhibition (MAP kinase-activated protein kinase 5 (Homo sapiens)) of [O-][S+]1CCN(Cc2ccc(-c3ccc4ncnc(Nc5ccc(OCc6ccccc6)c(F)c5)c4c3)o2)CC1
Response: 0.41

Prompt: Enter measured inhibition, system MAP kinase-activated protein kinase 5 (Homo sapiens), for the compound shown: Cc1nnc(-c2ccc(C)c(-c3ccc(C(=O)Nc4cccc(C#N)c4)cc3)c2)o1
Response: 0.95

Prompt: Fetch value of inhibition on MAP kinase-activated protein kinase 5 (Homo sapiens) for COc1cc(C=NNc2ncnc3c2cnn3-c2ccccc2)ccc1O .
Response: 0.22

Prompt: Find inhibition for CC(C)=Cc1cccc2c1/C(=N/Nc1ccc(S(N)(=O)=O)cc1)C(=O)N2 on MAP kinase-activated protein kinase 5 (Homo sapiens) and write it down.
Response: 0.48

Prompt: Answer with inhibition of COc1ccc2cc(-c3c(-c4ccncc4)nc(-c4ccc([S+](C)[O-])cc4)n3C)ccc2c1 (stereo unspecified) measured for MAP kinase-activated protein kinase 5 (Homo sapiens).
Response: 0.94

Prompt: Specify the recorded inhibition for NC(=O)c1cccc(Nc2nccc(Nc3cccc4[nH]ncc34)n2)c1 , system: MAP kinase-activated protein kinase 5 (Homo sapiens).
Response: -1.41

Prompt: Please indicate recorded inhibition of Fc1cccc(COc2ccc(Nc3ncnc4sc(-c5cccs5)cc34)cc2Cl)c1 measured with MAP kinase-activated protein kinase 5 (Homo sapiens).
Response: 0.51

Prompt: Answer with inhibition of Nc1nc(-c2ccccn2)c(-c2ccc3ncccc3n2)s1 measured for MAP kinase-activated protein kinase 5 (Homo sapiens).
Response: 1.31

Prompt: Give measured inhibition for CN(C)c1cc2c(Nc3ccc4nc(Cc5ccccc5)[nH]c4c3)ncnc2cn1 (MAP kinase-activated protein kinase 5 (Homo sapiens)).
Response: 1.83

Prompt: Please report inhibition with MAP kinase-activated protein kinase 5 (Homo sapiens) for item COc1ccccc1Nc1ncc(-c2ccccc2)o1 .
Response: 2.09

Prompt: State the measured inhibition (MAP kinase-activated protein kinase 5 (Homo sapiens)) of NS(=O)(=O)c1ccc(N/N=C2\C(=O)Nc3ccc(C(=O)NCCc4c[nH]cn4)cc32)cc1
Response: 1.41

Prompt: Return reported inhibition for target or system MAP kinase-activated protein kinase 5 (Homo sapiens), item COc1cccc(-n2ncc3c(N/N=C/c4cccc(F)c4)ncnc32)c1 .
Response: 0.63

Prompt: Give inhibition; test system MAP kinase-activated protein kinase 5 (Homo sapiens); compound Cc1nn(C)c2cc(N(C)c3ccnc(Nc4cccc(S(N)(=O)=O)c4)n3)ccc12
Response: 0.87

Prompt: // fetch inhibition; item: O=C1Nc2ccc(C(=O)c3ccco3)cc2C1=Cc1cc(Cl)c(O)c(Cl)c1 ; system: MAP kinase-activated protein kinase 5 (Homo sapiens)
Response: 1.97

Prompt: GET inhibition where system = MAP kinase-activated protein kinase 5 (Homo sapiens) and item = NC(=O)c1ccc(-c2nc(-c3ccccn3)c(-c3ccc4c(c3)OCO4)[nH]2)cc1
Response: 0.77

Prompt: Recall the reported inhibition of NS(=O)(=O)c1cccc(-c2ccc3c(NC(=O)C4CC4)n[nH]c3c2)c1 when tested on MAP kinase-activated protein kinase 5 (Homo sapiens).
Response: -0.5

Prompt: Provide inhibition, recorded with MAP kinase-activated protein kinase 5 (Homo sapiens), of Cc1cccc(-c2n[nH]cc2-c2ccc3ncccc3n2)n1
Response: 0.08

Prompt: # lookup: MAP kinase-activated protein kinase 5 (Homo sapiens) inhibition, key = O=C1NC(=O)C(c2ccc(Cl)cc2)=C1Nc1ccc(Cl)c(C(=O)O)c1
Response: -0.91

Prompt: Report the value of inhibition obtained on MAP kinase-activated protein kinase 5 (Homo sapiens) for Nc1ncnc2occ(-c3ccc(NC(=O)Nc4cccc(C(F)(F)F)c4)cc3)c12 .
Response: 1.67

Prompt: Consider the compound CCc1cccc(NC(=O)Nc2ccc(Oc3ccc4nc(NC(=O)OC)[nH]c4c3)cc2)c1 tested on MAP kinase-activated protein kinase 5 (Homo sapiens); state its inhibition.
Response: 0.32

Prompt: Enter measured inhibition, system MAP kinase-activated protein kinase 5 (Homo sapiens), for the compound shown: COC(=O)Nc1nc2cc(Oc3cccc(NC(=O)Nc4cc(C(F)(F)F)ccc4F)c3)ccc2[nH]1;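 note: reported values are mean PRAK inhibition figures from the GSK PKIS screen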
Response: -0.26

Prompt: State inhibition on MAP kinase-activated protein kinase 5 (Homo sapiens). Entry: CS(=O)(=O)CCNCc1nc(-c2ccc3ncnc(Nc4ccc(F)c(Cl)c4)c3c2)cs1
Response: 0.35

Prompt: Jot down inhibition (MAP kinase-activated protein kinase 5 (Homo sapiens)) of COc1ccc(-c2nn3ncccc3c2-c2ccnc(Nc3ccc(Cl)c(C(F)(F)F)c3)n2)cc1 .
Response: 1.42

Prompt: Retrieve inhibition on MAP kinase-activated protein kinase 5 (Homo sapiens); query COc1cc2ncn(-c3cc(O[C@@H](C)c4ccccc4Cl)c(C(N)=O)s3)c2cc1OC
Response: 1.26

###

Molecular target: Inhibitor of nuclear factor kappa-B kinase subunit beta (Homo sapiens);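 note: reported as mean inhibition, from the GSK PKIS screening set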
Conditions: at 1 µM
Exercise: for every item that follows, state its recorded inhibition.
Entry rule: numbers only, all in %.

Prompt: Retrieve inhibition measured for CCc1cccc(NC(=O)Nc2ccc(Oc3ccc4nc(NC(=O)OC)[nH]c4c3)cc2)c1 and print it.
Response: 2.83

Prompt: Tell me its inhibition given COc1ccc(-c2nn3ncccc3c2-c2ccnc(Nc3ccc(Cl)c(C(F)(F)F)c3)n2)cc1 as the entry.
Response: 8.22

Prompt: Read off the recorded inhibition for COC(=O)Nc1nc2cc(Oc3ccc(NC(=O)Nc4cccc(C(=O)O)c4)cc3)ccc2[nH]1
Response: 2.79

Prompt: Quote inhibition reported for O=C1NC(=O)C(c2cccc(Cl)c2)=C1Nc1ccc(O)c(Cl)c1 please.
Response: -3.39

Prompt: Respond only with inhibition recorded for CS(=O)(=O)CCNCc1ccc(-c2ccc3ncnc(Nc4ccc(OCc5cccc(F)c5)c(C(F)(F)F)c4)c3c2)o1
Response: 5.15

Prompt: Quick one: give measured inhibition for CS(=O)(=O)Nc1ccc(N/C=C2\C(=O)Nc3ccccc32)cc1
Response: -1.38

Prompt: Assign inhibition to the following record: NS(=O)(=O)c1ccc(N/N=C2\C(=O)Nc3ccc(C(=O)NCCc4c[nH]cn4)cc32)cc1
Response: 3.92

Prompt: Dear colleague, please send me the reported inhibition for CS(=O)(=O)CCNCc1nc(-c2ccc3ncnc(Nc4ccc(F)c(Cl)c4)c3c2)cs1 when you can.
Response: 1.99

Prompt: Look up and state reported inhibition for O=C(Nc1n[nH]c2nc(-c3ccco3)c(Br)cc12)C1CC1
Response: 2.38

Prompt: Using known records, supply inhibition for O=C1NC(=O)C(c2ccc(Cl)cc2)=C1Nc1ccc(Cl)c(C(=O)O)c1
Response: -1.44

Prompt: Tell me inhibition reported for Nc1nc(-c2ccc3c(c2)C(=Cc2cc(Br)c(O)c(Br)c2)C(=O)N3)cs1
Response: 0.06

Prompt: # return recorded inhibition for input O=C1NC(=O)C(c2ccccc2Cl)=C1Nc1cccc(O)c1
Response: 3.39

Prompt: Supply recorded inhibition for CCN1CCC(CC(=O)Nc2n[nH]c3nc(-c4cccs4)c(Br)cc23)CC1 here.
Response: -2.71
